Values were extracted from patent US20260207623A1.

# measurement_protocol: Phase 1 pharmacokinetic study of a single oral dose of 20 mg E4 monohydrate in female subjects with normal hepatic function and mild, moderate or severe hepatic impairment (plasma, LC-MS/MS, non-compartmental analysis)
# Assay type: in vivo, human
# stated_conditions: female, human, plasma, po, 20 mg, Mild hepatic impairment; single oral dose 20 mg E4 monohydrate; plasma; read-out: Cmax, Mean
endpoint_name: Cmax

Form field: reported Cmax of C[C@]12CC[C@@H]3c4ccc(O)cc4CC[C@H]3[C@@H]1[C@@H](O)[C@@H](O)[C@@H]2O [E4]
~38 ng/mL

###

# measurement_protocol: Phase 1 pharmacokinetic study of a single oral dose of 20 mg E4 monohydrate in female subjects with normal hepatic function and mild, moderate or severe hepatic impairment (plasma, LC-MS/MS, non-compartmental analysis)
# Assay type: in vivo, human
# stated_conditions: female, human, plasma, po, 20 mg, Moderate (Test); one-way ANOVA; single oral dose 20 mg; read-out: AUCinf, Geometric LS Mean
# Procedure: This was a Phase 1, multi-centre, open-label, PK, and safety study of a single oral dose of 20 mg E4 monohydrate in female subjects with normal hepatic function (Group 1), mild hepatic impairment (Group 2), moderate hepatic impairment (Group 3), and severe hepatic impairment (Group 4), as defined using the Child-Pugh classification at Screening. […] PK parameters were calculated by non-compartmental analysis. […]
endpoint_name: AUC(0-inf) (µg·h/mL)
Kindly provide the numeric value in µg·h/mL only, without the unit symbol.

Give its AUC(0-inf) value. Item: C[C@]12CC[C@@H]3c4ccc(O)cc4CC[C@H]3[C@@H]1[C@@H](O)[C@@H](O)[C@@H]2O [E4]
0.108

###

# measurement_protocol: Phase 1 pharmacokinetic study of a single oral dose of 20 mg E4 monohydrate in female subjects with normal hepatic function and mild, moderate or severe hepatic impairment (plasma, LC-MS/MS, non-compartmental analysis)
# Format: in vivo, human
# stated_conditions: female, human, plasma, po, 20 mg, Severe hepatic impairment; single oral dose 20 mg E4 monohydrate; plasma; read-out: T1/2, GM (converted)
endpoint_name: half-life (h)
Respond with the bare value in h.

half-life for C[C@]12CC[C@@H]3c4ccc(O)cc4CC[C@H]3[C@@H]1[C@@H](O)[C@@H](O)[C@@H]2O [E4] ?
8.22

###

# measurement_protocol: Phase 1 pharmacokinetic study of a single oral dose of 20 mg E4 monohydrate in female subjects with normal hepatic function and mild, moderate or severe hepatic impairment (plasma, LC-MS/MS, non-compartmental analysis)
# Type: in vivo, human
# stated_conditions: female, human, plasma, po, 20 mg, Moderate hepatic impairment; single oral dose 20 mg E4 monohydrate; plasma; read-out: AUCinf, GM
endpoint_name: AUC(0-inf) (ng·h/mL)
The answer is to be given in ng·h/mL; state only the numeric part.

Tell me the measured AUC(0-inf) of C[C@]12CC[C@@H]3c4ccc(O)cc4CC[C@H]3[C@@H]1[C@@H](O)[C@@H](O)[C@@H]2O , please.
108

###

# measurement_protocol: Phase 1 pharmacokinetic study of a single oral dose of 20 mg E4 monohydrate in female subjects with normal hepatic function and mild, moderate or severe hepatic impairment (plasma, LC-MS/MS, non-compartmental analysis)
# Assay type: in vivo, human
# stated_conditions: female, human, plasma, po, 20 mg, Mild hepatic impairment; single oral dose 20 mg E4 monohydrate; plasma; read-out: T1/2, GM (converted)
endpoint_name: half-life (min)
Dear colleague, please return just the value in min, with no unit written.

Find the recorded half-life belonging to C[C@]12CC[C@@H]3c4ccc(O)cc4CC[C@H]3[C@@H]1[C@@H](O)[C@@H](O)[C@@H]2O and report it.
1200

###

# measurement_protocol: Phase 1 pharmacokinetic study of a single oral dose of 20 mg E4 monohydrate in female subjects with normal hepatic function and mild, moderate or severe hepatic impairment (plasma, LC-MS/MS, non-compartmental analysis)
# Type: in vivo, human
# stated_conditions: female, human, plasma, po, 20 mg, Mild hepatic impairment; single oral dose 20 mg E4 monohydrate; plasma; read-out: Vz/F, GM
endpoint_name: Vd/F (L)
Dear colleague, please return just the value in L, with no unit written.

Need Vd/F of C[C@]12CC[C@@H]3c4ccc(O)cc4CC[C@H]3[C@@H]1[C@@H](O)[C@@H](O)[C@@H]2O [E4] , thanks.
4960

###

# measurement_protocol: Phase 1 pharmacokinetic study of a single oral dose of 20 mg E4 monohydrate in female subjects with normal hepatic function and mild, moderate or severe hepatic impairment (plasma, LC-MS/MS, non-compartmental analysis)
# Type: in vivo, human
# stated_conditions: female, human, plasma, po, 20 mg, Moderate hepatic impairment; single oral dose 20 mg E4 monohydrate; plasma; read-out: Cmax, GM
endpoint_name: Cmax (ng/mL)
Only the number, expressed in ng/mL, is required.

Recorded Cmax for C[C@]12CC[C@@H]3c4ccc(O)cc4CC[C@H]3[C@@H]1[C@@H](O)[C@@H](O)[C@@H]2O , please?
39.4

###

# measurement_protocol: Phase 1 pharmacokinetic study of a single oral dose of 20 mg E4 monohydrate in female subjects with normal hepatic function and mild, moderate or severe hepatic impairment (plasma, LC-MS/MS, non-compartmental analysis)
# Type: in vivo, human
# stated_conditions: female, human, plasma, po, 20 mg, Mild hepatic impairment; single oral dose 20 mg E4 monohydrate; plasma; read-out: Tmax, Median
endpoint_name: Tmax (min)
Output spec: scalar in min, unitless text.

I have this molecule here, C[C@]12CC[C@@H]3c4ccc(O)cc4CC[C@H]3[C@@H]1[C@@H](O)[C@@H](O)[C@@H]2O , and I need its recorded Tmax.
22.5

###

# measurement_protocol: Phase 1 pharmacokinetic study of a single oral dose of 20 mg E4 monohydrate in female subjects with normal hepatic function and mild, moderate or severe hepatic impairment (plasma, LC-MS/MS, non-compartmental analysis)
# Type: in vivo, human
# stated_conditions: female, human, plasma, po, 20 mg, Normal hepatic function; single oral dose 20 mg E4 monohydrate; plasma; read-out: AUC0-24 h, GM
endpoint_name: AUC(0-t) (ng·h/mL)
Please give a number only; it is taken to be in ng·h/mL.

Name the recorded AUC(0-t) for C[C@]12CC[C@@H]3c4ccc(O)cc4CC[C@H]3[C@@H]1[C@@H](O)[C@@H](O)[C@@H]2O [E4] .
60.4

###

# measurement_protocol: Phase 1 pharmacokinetic study of a single oral dose of 20 mg E4 monohydrate in female subjects with normal hepatic function and mild, moderate or severe hepatic impairment (plasma, LC-MS/MS, non-compartmental analysis)
# Format: in vivo, human
# stated_conditions: female, human, plasma, po, 20 mg, Mild hepatic impairment; single oral dose 20 mg E4 monohydrate; plasma; read-out: AUC0-24 h, Mean
# Procedure: This was a Phase 1, multi-centre, open-label, PK, and safety study of a single oral dose of 20 mg E4 monohydrate in female subjects with normal hepatic function (Group 1), mild hepatic impairment (Group 2), moderate hepatic impairment (Group 3), and severe hepatic impairment (Group 4), as defined using the Child-Pugh classification at Screening. […] PK parameters were calculated by non-compartmental analysis. […]
endpoint_name: AUC(0-t) (ng·h/mL)
Field: numeric (ng·h/mL). Do not append units.

For C[C@]12CC[C@@H]3c4ccc(O)cc4CC[C@H]3[C@@H]1[C@@H](O)[C@@H](O)[C@@H]2O [E4] , what is its reported AUC(0-t)?
72.9

###

# measurement_protocol: Phase 1 pharmacokinetic study of a single oral dose of 20 mg E4 monohydrate in female subjects with normal hepatic function and mild, moderate or severe hepatic impairment (plasma, LC-MS/MS, non-compartmental analysis)
# Format: in vivo, human
# stated_conditions: female, human, plasma, po, 20 mg, Normal hepatic function; single oral dose 20 mg E4 monohydrate; plasma; read-out: Cmax, Median
endpoint_name: Cmax (ng/mL)
Write down the numeric answer in ng/mL and omit the unit.

Which Cmax reading was recorded for the compound C[C@]12CC[C@@H]3c4ccc(O)cc4CC[C@H]3[C@@H]1[C@@H](O)[C@@H](O)[C@@H]2O [E4] ?
24.8

###

# measurement_protocol: Phase 1 pharmacokinetic study of a single oral dose of 20 mg E4 monohydrate in female subjects with normal hepatic function and mild, moderate or severe hepatic impairment (plasma, LC-MS/MS, non-compartmental analysis)
# Type: in vivo, human
# stated_conditions: female, human, plasma, po, 20 mg, Normal hepatic function; single oral dose 20 mg E4 monohydrate; plasma; read-out: AUClast, Median
endpoint_name: AUC(0-t) (µg·h/mL)
Answer with a number only, understood to be in µg·h/mL.

I'd like to know its AUC(0-t). The compound in question is C[C@]12CC[C@@H]3c4ccc(O)cc4CC[C@H]3[C@@H]1[C@@H](O)[C@@H](O)[C@@H]2O [E4]
0.111

###

# measurement_protocol: Phase 1 pharmacokinetic study of a single oral dose of 20 mg E4 monohydrate in female subjects with normal hepatic function and mild, moderate or severe hepatic impairment (plasma, LC-MS/MS, non-compartmental analysis)
# Type: in vivo, human
# stated_conditions: female, human, plasma, po, 20 mg, Severe hepatic impairment; single oral dose 20 mg E4 monohydrate; plasma; read-out: AUClast, Median
endpoint_name: AUC(0-t) (ng·h/mL)
Record the value in ng·h/mL, omitting the unit from your answer.

Item under review: C[C@]12CC[C@@H]3c4ccc(O)cc4CC[C@H]3[C@@H]1[C@@H](O)[C@@H](O)[C@@H]2O . Reported AUC(0-t)?
178
